Test: Pharmacokinetic tests in rats
Type: in vivo, Sprague–Dawley rats
Conditions: male, Sprague-Dawley, rat, plasma, iv, 144 mg/kg
property: half-life (min)
One number for each entry, in min.

# compound O=C(O)[C@H]1/C(=C/CO)O[C@@H]2CC(=O)N21 [Clavulanate] ; its half-life = 10.2

* * *

Test: Pharmacokinetic tests in rats
Format: in vivo, Sprague–Dawley rats
Conditions: male, Sprague-Dawley, rat, plasma, iv, 144 mg/kg
property: AUC(0-inf) (ng·h/mL)
One number for each entry, in ng·h/mL.

What the record says about O=C(O)[C@H]1/C(=C/CO)O[C@@H]2CC(=O)N21 [Clavulanate] : AUC(0-inf) is 559

* * *

Assay: Pharmacokinetic tests in rats
Type: in vivo, Sprague–Dawley rats
Conditions: male, Sprague-Dawley, rat, plasma, iv, 144 mg/kg
property: Cmax (ng/mL)
Answers are plain numbers, in ng/mL.

Measured Cmax, O=C(O)[C@H]1/C(=C/CO)O[C@@H]2CC(=O)N21 [Clavulanate] : 1660
